All values here come from ChEMBL document CHEMBL1136016.

experimental-system: Adenosine receptor A2a (Homo sapiens, UniProt P29274)
Sequence (P29274 whole entry): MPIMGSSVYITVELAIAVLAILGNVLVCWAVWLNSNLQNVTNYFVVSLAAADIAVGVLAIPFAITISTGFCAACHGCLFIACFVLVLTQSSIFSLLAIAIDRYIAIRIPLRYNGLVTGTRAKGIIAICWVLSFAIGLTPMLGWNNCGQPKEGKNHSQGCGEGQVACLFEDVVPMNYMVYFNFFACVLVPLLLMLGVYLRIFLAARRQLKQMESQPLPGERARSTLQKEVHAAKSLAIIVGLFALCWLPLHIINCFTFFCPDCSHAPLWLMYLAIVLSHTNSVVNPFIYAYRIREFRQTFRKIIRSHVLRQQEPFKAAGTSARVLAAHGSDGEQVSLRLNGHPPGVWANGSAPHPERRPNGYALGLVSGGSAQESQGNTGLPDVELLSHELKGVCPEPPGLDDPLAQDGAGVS
protocol-summary: Displacement of [3H]SCH-58261 from human Adenosine A2A receptor expressed in HEK293 cells; range 162-200
Type: cell-based
assay-endpoint: pKi
Conceptually, pKi converts a concentration in mol/L into minus its log10.

Reported pKi for Adenosine receptor A2a (Homo sapiens, UniProt P29274), given `Cn1cc2c(nc(NC(=O)Nc3ccc(Cl)cc3)n3nc(-c4ccco4)nc23)n1` ?
6.74

* * *

experimental-system: Adenosine receptors; A2b & A3 (Homo sapiens) (UniProt P29275+P0DMS8)
protocol-summary: Selectivity ratio (h2B/hA3)
Format: protein assay
assay-endpoint: Ratio
Lab note: record just the number, no unit beside it.

Given `CCCCn1cc2c(nc(NC(=O)Nc3ccccc3Cl)n3nc(-c4ccco4)nc23)n1` , state its recorded Ratio.
91

Try this molecule too: `Cn1cc2c(nc(NC(=O)Nc3cccc(Cl)c3)n3nc(-c4ccco4)nc23)n1`
512

Try this molecule too: `CCn1cc2c(nc(NC(=O)Nc3ccc(Cl)c(Cl)c3)n3nc(-c4ccco4)nc23)n1`
13

Try this molecule too: `CCn1cc2c(nc(NC(=O)Nc3ccc(C(F)(F)F)cc3)n3nc(-c4ccco4)nc23)n1`
242

Try this molecule too: `CCCn1cc2c(nc(NC(=O)Nc3ccccc3)n3nc(-c4ccco4)nc23)n1`
1610

Try this molecule too: `CCCCn1cc2c(nc(NC(=O)Nc3ccc(Cl)c(Cl)c3)n3nc(-c4ccco4)nc23)n1`
9.19

Try this molecule too: `CCCCn1cc2c(nc(NC(=O)Nc3ccccc3)n3nc(-c4ccco4)nc23)n1`
238

Try this molecule too: `CCCn1cc2c(nc(NC(=O)Nc3ccc([N+](=O)[O-])cc3)n3nc(-c4ccco4)nc23)n1`
377

Try this molecule too: `CCCn1cc2c(nc(NC(=O)Nc3ccc(C)cc3)n3nc(-c4ccco4)nc23)n1`
115

Try this molecule too: `CCn1cc2c(nc(NC(=O)Nc3cccc(Cl)c3)n3nc(-c4ccco4)nc23)n1`
93.7

Try this molecule too: `CCCn1cc2c(nc(NC(=O)Nc3ccc(F)cc3)n3nc(-c4ccco4)nc23)n1`
555

Try this molecule too: `CCn1cc2c(nc(NC(=O)Nc3cccc(OC)c3)n3nc(-c4ccco4)nc23)n1`
250

Try this molecule too: `CCCn1cc2c(nc(NC(=O)Nc3ccc(Cl)cc3)n3nc(-c4ccco4)nc23)n1`
224

Try this molecule too: `CCCCn1cc2c(nc(NC(=O)Nc3ccc(Cl)cc3)n3nc(-c4ccco4)nc23)n1`
202

Try this molecule too: `CCCCn1cc2c(nc(NC(=O)Nc3ccc(Br)cc3)n3nc(-c4ccco4)nc23)n1`
133

Try this molecule too: `Cn1cc2c(nc(NC(=O)Nc3ccc4c(c3)OCO4)n3nc(-c4ccco4)nc23)n1`
592

Try this molecule too: `CCCCn1cc2c(nc(NC(=O)Nc3ccc(C(F)(F)F)cc3)n3nc(-c4ccco4)nc23)n1`
181

Try this molecule too: `CCCn1cc2c(nc(NC(=O)Nc3ccc(C(F)(F)F)cc3)n3nc(-c4ccco4)nc23)n1`
267

Try this molecule too: `CCCCn1cc2c(nc(NC(=O)Nc3ccc([N+](=O)[O-])cc3)n3nc(-c4ccco4)nc23)n1`
96

Try this molecule too: `CCn1cc2c(nc(NC(=O)Nc3ccc(Cl)cc3)n3nc(-c4ccco4)nc23)n1`
425

Try this molecule too: `CCCn1cc2c(nc(NC(=O)Cc3ccccc3)n3nc(-c4ccco4)nc23)n1`
142

Try this molecule too: `CCCCn1cc2c(nc(NC(=O)Nc3ccc4c(c3)OCO4)n3nc(-c4ccco4)nc23)n1`
156

Try this molecule too: `CCCCn1cc2c(nc(NC(=O)Nc3ccc(F)cc3)n3nc(-c4ccco4)nc23)n1`
170

Try this molecule too: `COc1ccc(NC(=O)Nc2nc3ccc(Cl)cc3c3nc(-c4ccco4)nn23)cc1`
158

Try this molecule too: `CCCn1cc2c(nc(NC(=O)Nc3cccc(OC)c3)n3nc(-c4ccco4)nc23)n1`
438

Try this molecule too: `CCCCn1cc2c(nc(NC(=O)Cc3ccccc3)n3nc(-c4ccco4)nc23)n1`
91

Try this molecule too: `COc1ccc(NC(=O)Nc2nc3nn(C)cc3c3nc(-c4ccco4)nn23)cc1`
1300

Try this molecule too: `Cn1cc2c(nc(NC(=O)Cc3ccccc3)n3nc(-c4ccco4)nc23)n1`
204

Try this molecule too: `COc1cccc(NC(=O)Nc2nc3nn(C)cc3c3nc(-c4ccco4)nn23)c1`
313

Try this molecule too: `CCCCn1cc2c(nc(NC(=O)Nc3cccc(OC)c3)n3nc(-c4ccco4)nc23)n1`
250

Try this molecule too: `CCCn1cc2c(nc(NC(=O)Nc3ccc(Cl)c(Cl)c3)n3nc(-c4ccco4)nc23)n1`
12

Try this molecule too: `CCn1cc2c(nc(NC(=O)Nc3ccc(OC)cc3)n3nc(-c4ccco4)nc23)n1`
408

Try this molecule too: `CCn1cc2c(nc(NC(=O)Nc3ccccc3OC)n3nc(-c4ccco4)nc23)n1`
350

Try this molecule too: `CCCn1cc2c(nc(NC(=O)Nc3ccc4c(c3)OCO4)n3nc(-c4ccco4)nc23)n1`
177

Try this molecule too: `CCCCn1cc2c(nc(NC(=O)Nc3ccc(C)cc3)n3nc(-c4ccco4)nc23)n1`
767

Try this molecule too: `CCn1cc2c(nc(NC(=O)Nc3ccc4c(c3)OCO4)n3nc(-c4ccco4)nc23)n1`
178

* * *

experimental-system: Adenosine receptor A2b (Homo sapiens, UniProt P29275)
Sequence (P29275 whole entry): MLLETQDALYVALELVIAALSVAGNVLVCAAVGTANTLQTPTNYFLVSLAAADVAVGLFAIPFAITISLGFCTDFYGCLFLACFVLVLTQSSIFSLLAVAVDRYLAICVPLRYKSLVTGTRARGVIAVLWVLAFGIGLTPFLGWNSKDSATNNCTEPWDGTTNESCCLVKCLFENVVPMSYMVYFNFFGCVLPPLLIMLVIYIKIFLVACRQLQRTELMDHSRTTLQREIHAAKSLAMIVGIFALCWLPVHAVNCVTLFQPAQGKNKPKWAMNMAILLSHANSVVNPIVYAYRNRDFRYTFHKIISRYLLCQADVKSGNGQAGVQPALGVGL
protocol-summary: Displacement of [3H]DPCPX binding at human Adenosine A2B receptor expressed in HEK293 cells
Type: cell-based
assay-endpoint: pKi
Conceptually, pKi converts a concentration in mol/L into minus its log10.

Reported pKi for Adenosine receptor A2b (Homo sapiens, UniProt P29275), given `CCCCn1cc2c(nc(NC(=O)Nc3ccc([N+](=O)[O-])cc3)n3nc(-c4ccco4)nc23)n1` ?
7.28

Try this molecule too: `CCn1cc2c(nc(NC(=O)Nc3ccc([N+](=O)[O-])cc3)n3nc(-c4ccco4)nc23)n1`
6.65

Try this molecule too: `Cn1cc2c(nc(NC(=O)Nc3ccc([N+](=O)[O-])cc3)n3nc(-c4ccco4)nc23)n1`
6.74

Try this molecule too: `CCCn1cc2c(nc(NC(=O)Nc3ccc([N+](=O)[O-])cc3)n3nc(-c4ccco4)nc23)n1`
6.52

* * *

experimental-system: UniProt:P0DMS8
protocol-summary: Displacement of [3H]MRE3008-F20 from human Adenosine A3 receptor expressed in HEK cells; range 2.0-3.1
Assay type: cell-based, HEK293
assay-endpoint: Ki (nM)
Give the value, in units of nM, as a plain number.

Reported Ki for UniProt:P0DMS8, given `CCCn1cc2c(nc(NC(=O)Nc3ccc(Cl)c(Cl)c3)n3nc(-c4ccco4)nc23)n1` ?
2.5

* * *

experimental-system: Adenosine receptor A1 (Homo sapiens, UniProt P30542)
Sequence (P30542 whole entry): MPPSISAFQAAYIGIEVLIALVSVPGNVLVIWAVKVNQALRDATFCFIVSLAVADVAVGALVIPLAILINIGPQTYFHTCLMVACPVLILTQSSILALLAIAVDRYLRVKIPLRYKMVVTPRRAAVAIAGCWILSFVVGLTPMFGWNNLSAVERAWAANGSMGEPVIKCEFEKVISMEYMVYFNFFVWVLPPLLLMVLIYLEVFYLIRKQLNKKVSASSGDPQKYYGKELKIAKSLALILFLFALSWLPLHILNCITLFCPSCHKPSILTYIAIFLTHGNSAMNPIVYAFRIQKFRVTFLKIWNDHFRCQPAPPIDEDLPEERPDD
protocol-summary: Displacement of [3H]DPCPX from human Adenosine A1 receptor expressed in CHO cells; range 294-480
Type: cell-based
assay-endpoint: Ki (nM)
Give the value, in units of nM, as a plain number.

Given `CCCn1cc2c(nc(NC(=O)Nc3ccc(F)cc3)n3nc(-c4ccco4)nc23)n1` , state its recorded Ki.
376

* * *

experimental-system: Adenosine receptor A3 (Homo sapiens, UniProt P0DMS8)
Sequence (P0DMS8 whole entry): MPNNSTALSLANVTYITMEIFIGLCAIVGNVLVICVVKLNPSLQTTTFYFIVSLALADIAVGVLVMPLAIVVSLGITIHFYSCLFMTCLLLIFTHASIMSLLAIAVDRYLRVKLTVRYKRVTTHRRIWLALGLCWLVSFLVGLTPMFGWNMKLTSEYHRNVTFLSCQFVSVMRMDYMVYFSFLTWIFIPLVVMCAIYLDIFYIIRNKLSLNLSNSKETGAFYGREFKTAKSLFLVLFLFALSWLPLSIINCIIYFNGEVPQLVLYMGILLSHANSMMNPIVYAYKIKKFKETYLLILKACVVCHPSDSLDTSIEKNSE
protocol-summary: biochemical
Description: Displacement of [3H]MRE3008-F20 from human Adenosine A3 receptor expressed in HEK cells; range 0.22-0.34
assay-endpoint: Ki (nM)
Give the value, in units of nM, as a plain number.

Given `CCn1cc2c(nc(NC(=O)Nc3ccc4c(c3)OCO4)n3nc(-c4ccco4)nc23)n1` , state its recorded Ki.
0.27
